# Tested on: HCC 2998
# assay_remarks: NCI tumour cell line growth inhibition, 48 h
Activity calls are given as the source filed them. No stated cut-off is given here; in the data, active = GI50 up to about 1.1 µM and inactive = higher.
observation_type: GI50

Ask: Return reported GI50 for target or system HCC 2998, item c1ccc2c(c1)[nH]c1c[nH]c3c4cccnc4nc-3c12 .
Result: 19 µM (inactive)

Ask: Report GI50 from HCC 2998 testing of Cc1cc2c(O)c(c1)CN(Cc1ccccc1)Cc1cc(C)cc(c1O)CN(Cc1ccccc1)Cc1cc(C)cc(c1O)CN(Cc1ccccc1)C2
Result: > 100 µM (inactive)

Ask: Param request: GI50 | system HCC 2998 | item Cn1c2c(c3ccccc31)CCN=C2C1CCCOC1=O (stereo not given)
Result: > 100 µM (inactive)

Ask: Quote HCC 2998 GI50 for entry N=C(Nc1nc(-c2ccccn2)cc2ccccc12)c1ccccn1 .
Result: 0.117 µM (active)

Ask: Write down the reported GI50 (system: HCC 2998) of COc1ccc(SCc2cc(OCc3ccccc3)c(OCc3ccccc3)c(OCc3ccccc3)c2)cc1
Result: 1.43 µM (inactive)

Ask: Fill in GI50 for CC1(C(O)c2ccccc2)CN(C(C)(C)C)C(=O)/C1=C\Sc1ccccc1 (stereo not given) tested with HCC 2998.
Result: 94.2 µM (inactive)

Ask: Report GI50 under test system HCC 2998 for CSc1s[s+]c(SC)c1-c1ccccc1 .
Result: 5.62 µM (inactive)

Ask: Tell me its GI50 on HCC 2998: COC(=O)CSc1[nH]c2nc(C)nc(Nc3ccccc3)c2c1C#N
Result: > 10 µM (inactive)

Ask: Provide HCC 2998 GI50 reading for CC1(C)C2CCC(CN)(C2)C1N (stereo not given) .
Result: 9.42 µM (inactive)

Ask: # lookup: HCC 2998 GI50, key = C=Cc1ccccc1C1C(C(=O)OCC)=C(C)N=C2OC(C(=O)OC)C(=O)N21 (stereo not given)
Result: > 100 µM (inactive)

Ask: Under HCC 2998, report GI50 for NS(=O)(=O)c1ccc(/C=C/c2ccc(F)cc2)cc1
Result: 51.8 µM (inactive)

Ask: Tell me its GI50 on HCC 2998: NC(=S)N/N=C1\C(=O)N(CCc2ccccc2)C(=O)C1C(=O)NCCc1ccccc1 (stereo not given)
Result: > 100 µM (inactive)

Ask: For HCC 2998, give GI50 of the listed compound: c1ccc(C(c2ccccc2)c2ccccn2)cc1
Result: > 100 µM (inactive)

Ask: System HCC 2998. Read-out GI50. Item Nc1nc(N)c(-c2cccc(C(F)(F)F)c2)c(Cc2cccc(C(F)(F)F)c2)n1 . Report value.
Result: 3.1 µM (inactive)

Ask: Find GI50 for O=C1C([P+](c2ccccc2)(c2ccccc2)c2ccccc2)=C([O-])C(=Cc2ccc(Cl)c(Cl)c2)C([O-])=C1[P+](c1ccccc1)(c1ccccc1)c1ccccc1 on HCC 2998 and write it down.
Result: 2.93 µM (inactive)

###

# System: NCI-H522
# assay_remarks: NCI tumour cell line growth inhibition, 48 h
Calls of active or inactive are those of the source. No stated cut-off is given here; in the data, active = GI50 up to about 1.1 µM and inactive = higher.
Parameter call: string, one of t for active, f for inactive

Ask: Would you mind telling me which call this test gave Cc1ccccc1/N=N/c1ccc(N/N=C2/CCCNC2=O)c(C)c1 ?
Result: f

Ask: # lookup: test call for Nc1ccccc1-n1c2c(c3ccccc3c1=O)C(=O)c1ccccc1-2
Result: f

Ask: Which outcome was assigned to COc1ccc(Cc2c3cc(OC)c(OC)cc3cc[n+]2C)cc1 in this test?
Result: f

Ask: Short answer needed: outcome of this test for CN(CC1NCCCC1O)C12CC3CC(CC(C3)C1)C2 (centres undefined) ?
Result: f

Ask: # fetch the recorded call for CC(=O)OCCN(C1=NCCN1)/[N+](C=c1ccc(=C=[N-])cc1)=C/c1ccc(C#N)cc1 here
Result: f

Ask: Which outcome did this test record for the compound COc1ccc(SCc2cc(OCc3ccccc3)c(OCc3ccccc3)c(OCc3ccccc3)c2)cc1 ?
Result: f

Ask: Per the assay record, what outcome was assigned to CC(C)=C[C@@H]1O[C@H](O)[C@@H]([C@H]2CC[C@@]3(C)[C@@H]4CC[C@H]5C(C)(C)C(=O)CC[C@@]56C[C@@]46CC[C@]23C)[C@@H]1O ?
Result: f

Ask: Record request — test call for C=C[C@]1(C)CC[C@]2(C)C(CC[C@@]3(C)C2C[C@H](O)[C@H](O)[C@@]3(C)O)C1 (some centres undefined)
Result: f

Ask: Recorded test outcome, item BrC(c1cccc2ccccc12)c1cccc2ccccc12
Result: f

Ask: Hi, do you know how Nc1nc(N)c2nc(-c3ccco3)cnc2n1 came out in this test?
Result: f

Ask: Would you mind telling me which call this test gave C=CC(=O)NCCC(=O)OCn1cc(F)c(=O)[nH]c1=O ?
Result: f

Ask: Please state the recorded outcome for this compound: NCCC1([N+](=O)[O-])CCNCC1
Result: f

Ask: # lookup: test call for S=C(N/N=C/c1ccccn1)N1CC2CCC(CC2)C1
Result: t

Ask: Assay outcome for CC(C)[Si](OC1=CCC[C@H]2NC(=O)[C@@H](Cc3ccccc3)[C@@]12C)(C(C)C)C(C)C : what was it?
Result: f

###

# Tested on: TK-10
# assay_remarks: NCI tumour cell line growth inhibition, 48 h
Calls of active or inactive are those of the source. Cut-off read from the data, not from the text of the source: active = GI50 up to about 1.1 µM and inactive = higher.
observation_type: GI50

Ask: Tell us which GI50 value is on record for C=C=CC(NC(=O)c1ccccc1)(C(=O)O)C(F)(F)F (configuration not stated)
Result: > 100 µM (inactive)

Ask: Respond only with GI50 recorded for O=C(O)c1ccc(C(=O)c2ccccc2)c(C(=O)O)c1
Result: > 100 µM (inactive)

Ask: Please give the documented GI50 of N=C(Nc1nc(-c2ccccn2)cc2ccccc12)c1ccccn1
Result: 0.249 µM (active)

Ask: Respond only with GI50 recorded for COC(=O)C(Cc1cn(C(C)n2cc(CC(NC(C)=O)C(=O)OC)c3ccccc32)c2ccccc12)NC(C)=O (configuration not stated)
Result: > 100 µM (inactive)

Ask: Please give the documented GI50 of Nc1cnc2c(c1)c(=O)nc1n2CCS1
Result: > 100 µM (inactive)

Ask: Provide GI50 value for the following compound: COc1cc2c(cc1O)C1C(O)C(O)C=C3CCN(C2)C31 (configuration not stated)
Result: 2.65 µM (inactive)

Ask: Input Cc1[nH]c2ccccc2c1/C=N/NC(=O)c1cccc(I)c1 , output reported GI50.
Result: 26.7 µM (inactive)

Ask: Entry Cc1cc2c(cc1C)[n+]([O-])c(C(=O)/C=C/c1ccc3c(c1)OCO3)c(C)[n+]2[O-] needs its GI50 filled in; supply it.
Result: 23.9 µM (inactive)

Ask: Indicate the recorded GI50 value for this compound: CC(C)N(CCn1c2c3ccccc3ccc2c2oc(=O)c3ccccc3c21)C(C)C
Result: > 100 µM (inactive)

Ask: Note down GI50 recorded for c1ccc(/N=C2\C(=N/c3ccccc3)N(C3CCCCC3)/C(=N\C3CCCCC3)N2c2ccccc2)cc1
Result: > 100 µM (inactive)

Ask: Check the records and state GI50 for O=C1NCC2(CCN(CCCC3(c4ccc(F)cc4)OCCO3)CC2)N1c1ccccc1
Result: > 100 µM (inactive)

Ask: Give GI50 for the following compound: O=C(O)[C@@H](NS(=O)(=O)c1ccc(F)cc1)c1ccccc1
Result: > 100 µM (inactive)

###

# System: KM12
# assay_remarks: NCI tumour cell line growth inhibition, 48 h
Activity calls are given as the source filed them. Cut-off read from the data, not from the text of the source: active = GI50 up to about 1.1 µM and inactive = higher.
Allowed answers: active, inactive

Ask: Which outcome was assigned to C[C@@H]1Nc2cc(NC(=O)OCCF)nc(N)c2N=C1c1ccccc1 in this test?
Result: active

Ask: Dear all, I need the recorded test outcome for COc1cc(/N=C(\N)N=C(N)N)c2ncccc2c1 , thank you.
Result: inactive

Ask: I'd appreciate the recorded outcome for Nc1cc2c3c(cccc3c1)NC2=O from this test.
Result: inactive

Ask: State the result this test recorded for COc1ccc(NCc2cnc3nc(N)nc(N)c3c2C)cc1 .
Result: inactive

Ask: Dear all, I need the recorded test outcome for CC(C)(C)OC(=O)N/C(C=O)=C\C1CCCCC1 , thank you.
Result: inactive

Ask: Which result was noted for this molecule in the test: Nc1nc(N)c2nc(-c3ccco3)cnc2n1
Result: inactive

Ask: GET /call?item= CCOC(=O)C(=O)NCCCN1CCOCC1 returns the recorded outcome of this test.
Result: inactive

Ask: How did this test come out for Clc1ccc2oc(CCC3CCCCC3)nc2c1 ?
Result: inactive

Ask: Recorded call for COc1ccc2cc3[n+](cc2c1OC)CCc1cc2c(cc1-3)OCO2 ?
Result: inactive

Ask: Record lookup: outcome of this test for CC(NC(=O)C(NC(=O)C(NC(=O)C(F)(F)F)C(C)C)C(C)C)C(=O)Oc1c(Cl)c(Cl)c(Cl)c(Cl)c1Cl (centres undefined) ?
Result: inactive

Ask: Returns: the outcome recorded for O=C1OCC2=Nc3cccc4cccc(c34)N12 in this assay.
Result: inactive

Ask: Entry Oc1ccc2c(c1)c1c(n2CCN2CCOCC2)-c2ccccc2CC1 : call = ?
Result: inactive

Ask: What call does the record list for CC(C)(C)c1cc(C(=O)/C=C/c2c(Cl)cccc2Cl)cc(C(C)(C)C)c1O ?
Result: inactive

Ask: Entry COC(=O)C(NC(=O)C(CC(=O)OC(C)(C)C)NC(=O)OC(C)(C)C)C(O)c1ccccc1 (centres undefined) : call = ?
Result: inactive

Ask: Short answer needed: outcome of this test for Cc1[nH]c2ccccc2c1/C=N/NC(=O)c1cccc(I)c1 ?
Result: inactive

Ask: Dear colleague, could you share the recorded outcome for Cc1c2n(c(=O)[nH]c1=O)C1OC(CO)C(N=[N+]=[N-])C1O2 (centres undefined) when you have a moment?
Result: inactive

Ask: Identify the outcome logged in this assay for the molecule shown: O=C(CCc1ccc(O)cc1)NCCc1cccc(OCc2ccccc2)c1
Result: inactive

Ask: What classification did O=C(O)c1ccc(C(=O)c2ccccc2)c(C(=O)O)c1 end up with in this test?
Result: inactive

Ask: Field: outcome | Entry: COc1cc2c(cc1OCCCN1CCOCC1)N=C[C@@H]1CCCN1C2=O
Result: inactive

Ask: Could you kindly confirm the outcome this assay logged for CN(C)NC(=O)NC12CC3CC(CC(C3)C1)C2 ?
Result: inactive

Ask: How was CC1=[N+]([O-])C(C)(C)N(N=O)C1(C)C classified in this test?
Result: inactive

Ask: For this molecule, state the assay outcome: O=[N+]([O-])c1ccc(COc2cccc3cccnc23)cc1
Result: inactive

Ask: Which outcome was entered for the molecule Cn1c2c(c3ccccc31)CCN=C2C1CCCOC1=O (centres undefined) in this test?
Result: inactive

Ask: Hey, what did the test say about CCOC(=O)C(CS)NC(=O)CCCCCCCC(=O)O (centres undefined) ?
Result: inactive

Ask: Look up the recorded call for C[C@]12CC[C@H](O)CC1CCC[C@@H]2O (some centres undefined) in this test.
Result: inactive

Ask: I'd appreciate the recorded outcome for CCCCC(=O)c1ccc2ccccc2c1O from this test.
Result: inactive

Ask: I would be grateful if you could indicate the recorded call for COc1cc([C@@H]2c3cc4c(cc3[C@@H](c3c(O)cc(O)c5c3O[C@H](c3ccc(O)c(O)c3)[C@H](OC(=O)c3cc(O)c(O)c(O)c3)C5)[C@H]3COC(=O)[C@H]23)OCO4)cc(OC)c1O .
Result: inactive

Ask: Outcome logged for CC1(C2CCC3(C)OC3C2)CO1 (centres undefined) in this assay:
Result: inactive

Ask: For O=C(NC1CCCCC1NC(c1ccccc1)(c1ccccc1)c1ccccc1)C(=O)NC1CCCCC1NC(c1ccccc1)(c1ccccc1)c1ccccc1 (centres undefined) , which call appears in the assay record?
Result: inactive

Ask: In this assay, the call recorded for OCCNCCOc1ccc(/C(=C(/Cl)c2ccccc2)c2ccccc2)cc1 was what?
Result: active

Ask: What outcome does the record of this test show for CCOC(=O)C1(Cc2ccccc2)Cc2ccccc2C1=O (centres undefined) ?
Result: inactive

Ask: Could you please tell me the result logged for CC12C(=CC(=O)CC1SCCS(=O)(=O)O)C(C#N)=C(N)N2c1ccc(Cl)c(Cl)c1 (centres undefined) in this assay?
Result: inactive

Ask: Name the outcome recorded for COc1ccc(N2C(N)=C(C#N)C(C#N)(C#N)C2c2cccc([N+](=O)[O-])c2)cc1 (centres undefined) in the assay.
Result: inactive

Ask: Given O=C(C/N=C(\CN(c1ccccc1)c1ccccc1)Oc1ccc(Cl)cc1Cl)n1ccnc1 , state the outcome it received in this test.
Result: inactive

Ask: # outcome recorded in this test, key = COc1ccc(CC(O)CN2CCOCC2)cc1 (centres undefined)
Result: inactive

Ask: # lookup: test call for OCCCCCCCCCCCOc1ccc(C2OCC3(CC=CCC3)CO2)cc1 (centres undefined)
Result: inactive

Ask: I'd appreciate the recorded outcome for COc1ccc(/C=N/n2c(Cc3ccc(Cl)cc3)n[nH]c2=O)c(OC)c1 from this test.
Result: inactive

Ask: // outcome(item) with item = C=C1C(=O)OC2/C=C(\C)C(OC(C)=O)C3OC3C(C)(O)CC(OC(=O)/C(C)=C/C)C12 (centres undefined)
Result: inactive

Ask: // outcome(item) with item = O=c1c2cc([N+](=O)[O-])ccc2n2n1CCCCC2
Result: inactive
